I'd appreciate it if you could supply normalized growth values for the items below.
- ASSAY_INFO: chemical genetic growth profiling, strain panel (AID 1159580);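 note: tested at 20 µM; growth read once vehicle control cultures reached saturation at 30 °C; 1 = growth at the plate median or of vehicle wells; lower values mean less growth of the strain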
- APPLIED_CONDITIONS: S. cerevisiae deletion strains, growth OD, locus YKL085W, strain MDH1 (second series), stronger effect = lower value
Out of some 5,500 compounds screened, about 2,000 (36%) were called active. Another 18% or so got no clear call; they are omitted. Some of the results follow.
Answers are plain numbers.

Reported normalized growth for COc1ccc(Cl)cc1C(=O)NCCc1ccc(S(=O)(=O)NC(=O)NC2CCCCC2)cc1 was 0.977

// normalized growth value for NC(CSCSCC(N)C(=O)O)C(=O)O (stereo not drawn) : 0.998

We now examine a further compound.
Entry CC(C)(C)NCC(O)c1cc(Cl)c(N)c(Cl)c1 (stereo not drawn) , normalized growth reported as 1.01

----------
- ASSAY_INFO: chemical genetic growth profiling, strain panel (AID 1159580);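 note: tested at 20 µM; growth read once vehicle control cultures reached saturation at 30 °C; 1 = growth at the plate median or of vehicle wells; lower values mean less growth of the strain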
- APPLIED_CONDITIONS: S. cerevisiae deletion strains, growth OD, locus YOR136W, strain idh2, stronger effect = lower value
The campaign covered roughly 5,500 compounds. About 2,000 (36%) were called active. Roughly 18% stayed inconclusive and do not appear here. The list shows a part of the results.
Provide the recorded normalized growth for the entries that follow.
Give bare numbers.

Value of normalized growth reported for the compound COc1cc(OC)c2ccc(=O)oc2c1 is 1.01

Summary for this compound, CCN(Cc1ccncc1)C(=O)C(CO)c1ccccc1 (stereo not given) : normalized growth is 0.997

// each listed compound needs a value for normalized growth
1. Cc1cc(C2CCCCC2)n(O)c(=O)c1
2. CN(C)c1nc(N)c(C(=O)N=C(N)N)nc1Cl
3. Cc1cc(OC(=O)c2c(C)cc(O)cc2O)cc(O)c1C(=O)O

[0.0767, 1, 1.01]

Go through the list and state normalized growth for each entry.
1. CCOC(=O)c1c(C)cc(O)cc1O
2. CC[n+]1c(-c2ccccc2)c2cc(N)ccc2c2ccc(N)cc21
3. COC(=O)[C@]1(C)CCC[C@]2(C)c3ccc(C(C)C)cc3C(=O)CC12 (stereo not given in full)
4. NC(=O)c1ncn([C@@H]2O[C@H](CO)[C@@H](O)[C@H]2O)n1
5. CCCC(C)(COC(N)=O)COC(=O)NC(C)C (stereo not given)
6. COc1ccc2ccc(=O)oc2c1

[0.928, 0.964, 1.02, 0.984, 0.973, 1.01]

Consider the following items and state reported normalized growth for each.
1. CCOC(=O)NC1=C(C2CC2)C(=O)C(NC(=O)OCC)=C(C2CC2)C1=O
2. COc1ccccc1/C=C\C(=O)O

0.983
1.02

----------
- ASSAY_INFO: chemical genetic growth profiling, strain panel (AID 1159580);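 note: tested at 20 µM; growth read once vehicle control cultures reached saturation at 30 °C; 1 = growth at the plate median or of vehicle wells; lower values mean less growth of the strain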
- APPLIED_CONDITIONS: S. cerevisiae deletion strains, growth OD, locus YJL134W, strain LCB3, stronger effect = lower value
The campaign covered roughly 5,500 compounds. About 2,000 (36%) were called active. Roughly 18% stayed inconclusive and do not appear here. The list shows a part of the results.
Can you tell me normalized growth for the items I'm about to list?
Numbers only.

Entry O=C(Cc1cccs1)NC1C(=O)N2C(C(=O)[O-])=C(C[n+]3ccccc3)CSC12 (stereo unspecified) , normalized growth reported as 1

// field: normalized growth; key: CCOC(=O)c1c(C)cc(O)cc1O ; value = 0.931

Memo: C[C@@H]([C@H](O)c1ccccc1)N(C)C , reported normalized growth: 1.01

Query CC(=O)Oc1ccc2c(c1OC(C)=O)OCC1(O)Cc3c(cc(OC(C)=O)c(OC(C)=O)c3OC(C)=O)C21 (stereo unspecified) yields normalized growth of 1

Note to self: normalized growth recorded for COC(=O)c1c(C)cc(OC)cc1O was 0.999

State the recorded normalized growth for every item in the following list.
1. CN1C[C@H](C(=O)N[C@]2(C)O[C@@]3(O)[C@@H]4CCCN4C(=O)[C@H](Cc4ccccc4)N3C2=O)C[C@@H]2c3cccc4[nH]cc(c34)C[C@H]21
2. CNC(C)C(O)c1ccccc1 (stereo unspecified)
3. CCc1cc(C(N)=S)ccn1
4. CCCC(C)(COC(N)=O)COC(=O)NC(C)C (stereo unspecified)
5. Cc1[nH]ccc2c1[nH]c1cc(=O)ccc12
6. CCCCCCC(C)OC(=O)COc1ccc(Cl)cc1Cl (stereo unspecified)

0.984
1
0.991
0.976
1
0.98

Where do these numbers come from? They come from PubChem BioAssay AID1159580.
